study.target: DLG1_2, Q12959
Sequence (Q12959 314-412): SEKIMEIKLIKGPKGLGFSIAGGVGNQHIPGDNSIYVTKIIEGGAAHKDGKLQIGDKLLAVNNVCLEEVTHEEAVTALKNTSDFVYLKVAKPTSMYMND
protocol.summary: holdup assay
Set-up: key: below the threshold = too weak to quantify, mostly under pKd 3.1 to 4
experimental.setup: plain residues with an end cap or a label only (N-terminal biotin on a linker: ado-ado)
property.label: pKd

Some entries whose results are on file:
binder	pKd
PAPSSGKDYV [CLDN1, O95832]	below the threshold
LPAHHNATRL [SLC34A1, Q06495;Q06495-1]	below the threshold
LGRSTPQSEV [DGKH, Q86XP1]	4.01
GQEEQVTTRL [TRPC5, Q9UL62]	below the threshold
YYKRPVQEWV [MMP24, Q9Y5R2]	3.99

Measured pKd, LPHGHSTTRV [NLGN4X, Q8N0W4] : 4.04

Measured pKd, YRLAQESGLV [ABCC6, O95255] : below the threshold

Measured pKd, IKAIVDLTGL [TRAF2, Q12933] : below the threshold
